SYSTEM_NAME: Tyrosine-protein kinase Fyn (Homo sapiens) (UniProt P06241)
Sequence (P06241 2-537 limits assumed): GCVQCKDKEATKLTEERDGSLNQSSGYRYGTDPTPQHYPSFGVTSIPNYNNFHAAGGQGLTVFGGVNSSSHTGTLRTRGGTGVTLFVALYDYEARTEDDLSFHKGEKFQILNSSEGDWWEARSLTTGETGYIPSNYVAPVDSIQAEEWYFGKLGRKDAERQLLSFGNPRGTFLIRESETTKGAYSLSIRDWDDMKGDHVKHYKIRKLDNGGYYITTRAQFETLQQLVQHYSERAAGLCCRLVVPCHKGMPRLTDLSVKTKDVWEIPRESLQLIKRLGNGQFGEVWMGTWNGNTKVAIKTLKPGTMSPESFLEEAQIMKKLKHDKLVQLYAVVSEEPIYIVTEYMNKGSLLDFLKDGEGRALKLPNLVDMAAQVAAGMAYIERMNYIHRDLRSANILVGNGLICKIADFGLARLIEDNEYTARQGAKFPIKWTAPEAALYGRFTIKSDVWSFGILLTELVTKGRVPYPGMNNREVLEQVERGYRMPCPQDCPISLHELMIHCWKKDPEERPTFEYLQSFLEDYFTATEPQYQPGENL
STUDY_CONDITIONS: at 0.1 µM
Description: GSK_PKIS: FYN mean inhibition at 0.1 uM [Nanosyn]
For each record, write down the corresponding inhibition.
Report the value in % with no unit label.

Query string: Fill blank: measured inhibition of the molecule "COc1cc(N2CCN(C(C)C)CC2)ccc1Nc1nc(Nc2cccc(F)c2C(=O)O)c2cc[nH]c2n1" is ____.
Result string: -0.12

Query string: // same read-out, input: "CCS(=O)(=O)c1ccc(OC)c(Nc2ncc(-c3cccc(F)c3)o2)c1"
Result string: 30.1

Query string: // same read-out, input: "c1ccc(-c2n[nH]cc2-c2ccnc(-c3ccc(OCCn4ccnc4)cc3)c2)nc1"
Result string: 2.86

Query string: // same read-out, input: "CCN1CCC(C(=O)Nc2n[nH]c3nnc(-c4cccc(F)c4F)cc23)CC1"
Result string: 1.4
